Assay: Caspase-3/7 induction in HepG2 cells by small molecules, qHTS cell viability counter screen (AID 1346981); note: nearly all actives have a fitted effect of over 30% in size
Settings: CellTiter-Fluor fluorescence, 17 h; series mostly up to 92.4 µM
Inconclusive results are not listed. Activity calls are given as the source filed them. Calls come from the whole dose curve; as a rule, active = well fitted cell-killing curve with a large enough effect in the repeat runs; inconclusive = weak or mixed curves, or effect the other way; inactive = flat fitted curve, though single readings scatter.
Outcome (select one): TRUE (active), FALSE (inactive)

Here's what some known entries look like.
compound	label.class
CN(C)c1ccc(CCO)cc1	FALSE
CNCCCCOc1ccccc1Cc1ccccc1	FALSE
O=[N+]([O-])c1ccc2[nH]ncc2c1	FALSE
CCO[C@H](Cc1ccc(OCCc2ccc(OS(C)(=O)=O)cc2)cc1)C(=O)O	FALSE
O=C1c2ccccc2S(=O)(=O)N1CCCCN1CCN(c2ncccn2)CC1	FALSE
CN1C[C@H]2c3ccccc3Oc3ccc(Cl)cc3[C@@H]2C1	FALSE

Each compound tested received a call. Report the one for CCCCCCCCO[C@@H]1O[C@H](CO)[C@@H](O)[C@H](O)[C@H]1O . FALSE

Each compound tested received a call. Report the one for CCCCCCCN . FALSE

Each compound tested received a call. Report the one for O=C(Cl)c1cc(C(=O)Cl)cc(C(=O)Cl)c1 . FALSE

Each compound tested received a call. Report the one for CCCCC(CC)COC(=O)CCCCCCCCC(=O)OCC(CC)CCCC (centres undefined) . FALSE

Each compound tested received a call. Report the one for CC(CC=O)c1ccccc1 (centres undefined) . FALSE

Each compound tested received a call. Report the one for Cc1ccc(N=Nc2c(O)c(C(=O)O)cc3ccccc23)c(S(=O)(=O)O)c1 . TRUE

Each compound tested received a call. Report the one for CCOC(=O)C(F)(F)F . FALSE

Each compound tested received a call. Report the one for CCc1cc(C2=C(C(=O)O)N(c3ccccc3C(F)(F)F)S(=O)(=O)c3ccccc32)cc2c1OCO2 . TRUE

* * *

Target: Cytochrome P450 2D6 (Homo sapiens) (UniProt P10635)
Sequence (P10635 whole entry, looked up): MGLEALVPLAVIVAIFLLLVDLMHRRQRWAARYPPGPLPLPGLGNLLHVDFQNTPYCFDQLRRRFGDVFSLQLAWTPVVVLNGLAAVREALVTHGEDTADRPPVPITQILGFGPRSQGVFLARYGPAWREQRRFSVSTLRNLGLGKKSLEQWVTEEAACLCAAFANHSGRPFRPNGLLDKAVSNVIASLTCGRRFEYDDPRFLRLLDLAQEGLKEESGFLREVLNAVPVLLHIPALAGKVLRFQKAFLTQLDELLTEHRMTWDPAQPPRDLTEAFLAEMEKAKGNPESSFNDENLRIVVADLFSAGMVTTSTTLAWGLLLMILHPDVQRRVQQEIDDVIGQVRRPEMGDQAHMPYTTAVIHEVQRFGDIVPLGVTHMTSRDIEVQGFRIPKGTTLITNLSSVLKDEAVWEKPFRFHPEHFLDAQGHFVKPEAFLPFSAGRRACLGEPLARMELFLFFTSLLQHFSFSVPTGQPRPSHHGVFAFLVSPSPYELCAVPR
Test: Cytochrome P450 Family 2 Subfamily D Member 6 (CYP2D6) small molecule antagonists: luciferase reporter qHTS assay (AID 1671196); note: nearly all actives have a fitted effect of over 50% in size; note: potency is the fitted concentration of half-maximal effect
Settings: P450-Glo CYP2D6 enzyme assay, luciferin luminescence, 1 h; series mostly up to 115 µM
From the text: U.S. Tox21 Program National Center for Advancing Translational Sciences [NCATS] U.S. Environmental Protection Agency [EPA] National Institutes of Environmental Health Sciences [NIEHS] National Toxicology Program [NTP] U.S. Food and Drug Administration [FDA] […] The luciferin products formed are detected with a luciferin detection reagent, and the amount of light produced is proportional to CYP activity. […]
Results filed as inconclusive are left out. The source made the active and inactive calls. Calls follow the shape of the dose curve; as a rule, active = well fitted inhibition curve with a large enough effect in the repeat runs; inconclusive = weak or mixed curves; inactive = no such curve, though single readings can be large or run the other way.
readout: Potency

For orientation, consider the following solved cases.
molecule	assayed.system	Potency
CC1=CC=C(C(C)C)CC1	Cytochrome P450 2D6 (Homo sapiens) (UniProt P10635)	inactive
CC1OC(=O)C(C)OC1=O (stereo not given)	Cytochrome P450 2D6 (Homo sapiens) (UniProt P10635)	inactive
CC(=O)[O][Al][O]C(C)=O	Cytochrome P450 2D6 (Homo sapiens) (UniProt P10635)	inactive
O=S(c1cc(Cl)cc(Cl)c1O)c1cc(Cl)cc(Cl)c1O	Cytochrome P450 2D6 (Homo sapiens) (UniProt P10635)	inactive
C=C1[C@H]2CC[C@@H]3[C@H]2C(C)(C)CCC[C@]13C	Cytochrome P450 2D6 (Homo sapiens) (UniProt P10635)	inactive
C[C@@H]1C[C@H]2[C@@H]3CCC4=CC(=O)C=C[C@]4(C)[C@@]3(F)[C@@H](O)C[C@]2(C)[C@@]1(O)C(=O)COC(=O)c1ccncc1	Cytochrome P450 2D6 (Homo sapiens) (UniProt P10635)	11 µM (active)
CC1CCC(=O)C1=O (stereo not given)	Cytochrome P450 2D6 (Homo sapiens) (UniProt P10635)	inactive
COc1cccc(N(C)C(=S)Oc2ccc3c(c2)CCCC3)n1	Cytochrome P450 2D6 (Homo sapiens) (UniProt P10635)	inactive

Provide Potency value for the following molecule: CC(C)CC(=O)C1C(=O)c2ccccc2C1=O inactive

Provide Potency value for the following molecule: C#CCN(C)CCCOc1ccc(Cl)cc1Cl 1.55 µM (active)

Provide Potency value for the following molecule: COc1cc(Cl)ccc1Oc1ccc(Cl)cc1Cl inactive

* * *

Target: Estrogen receptor (Homo sapiens)
Experiment: qHTS assay to identify small molecule antagonists of the estrogen receptor alpha (ER-alpha) signaling pathway using the BG1 cell line in the presence of 0.1 nM 17-beta-estradiol (AID 1259244); note: nearly all actives have a fitted effect of over 50% in size
Conditions: VM7Luc4E2 (BG1) ERE-luciferase, antagonist mode, 0.1 nM E2, 22 h; series mostly up to 42.5 µM
Records with an inconclusive call do not appear. Active and inactive are the calls of the source. The call rests on the fitted dose curve; in most records, active means well fitted inhibition curve with a large enough effect in the repeat runs; inconclusive means weak or mixed curves; inactive means no such curve, though single readings can be large or run the other way.
Outcome (select one): active, inactive

Here's what some known entries look like.
molecule	label.class
O=P(O)(OCc1ccccc1)OCc1ccccc1	inactive
COc1cc(C(=O)OCCCN2CCCN(CCCOC(=O)c3cc(OC)c(OC)c(OC)c3)CC2)cc(OC)c1OC	active

Each molecule tested received a call. Report the one for CN(C)c1ccc(CCO)cc1 . inactive

Each molecule tested received a call. Report the one for C[N+]1(C)CCC(OC(=O)C(O)(c2ccccc2)C2CCCC2)C1 (stereo not given) . inactive

Each molecule tested received a call. Report the one for CCO[C@H](Cc1ccc(OCCc2ccc(OS(C)(=O)=O)cc2)cc1)C(=O)O . inactive

Each molecule tested received a call. Report the one for Cc1oc(-c2ccccc2)nc1CCOc1cccc2c1ccn2CCC(=O)O . inactive

Each molecule tested received a call. Report the one for CN1C[C@H]2c3ccccc3Oc3ccc(Cl)cc3[C@@H]2C1 . inactive

Each molecule tested received a call. Report the one for CC1OC(=O)C(C)OC1=O (stereo not given) . inactive

Each molecule tested received a call. Report the one for NS(=O)(=O)c1ccc(N2CCCCS2(=O)=O)cc1 . inactive

Each molecule tested received a call. Report the one for CCCn1cnc2c1c(=O)n(CCCCC(C)=O)c(=O)n2C . inactive

* * *

Listing of entries alongside the reported activation.
Target: Nuclear receptor subfamily 1 group I member 2 (Homo sapiens) (UniProt O75469)
Sequence (O75469 whole entry, looked up): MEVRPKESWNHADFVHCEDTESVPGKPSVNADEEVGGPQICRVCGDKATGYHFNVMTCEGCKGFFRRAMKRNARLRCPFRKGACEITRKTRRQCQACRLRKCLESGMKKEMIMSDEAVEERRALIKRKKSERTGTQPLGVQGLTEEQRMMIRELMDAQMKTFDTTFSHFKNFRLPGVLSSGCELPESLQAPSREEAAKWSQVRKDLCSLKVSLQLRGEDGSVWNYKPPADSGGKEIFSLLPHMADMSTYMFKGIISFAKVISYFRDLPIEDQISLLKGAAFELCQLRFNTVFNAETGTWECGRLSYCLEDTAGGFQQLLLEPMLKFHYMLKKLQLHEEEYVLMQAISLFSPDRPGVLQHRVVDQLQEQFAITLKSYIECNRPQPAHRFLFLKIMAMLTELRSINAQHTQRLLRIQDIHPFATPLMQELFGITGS
Assay: Human pregnane X receptor (PXR) small molecule agonists, qHTS assay (AID 1346982); note: % is set by controls: 0 for no effect and ±100 for the full control effect; nearly all actives have a fitted effect of over 35% in size
Conditions: PXR-Luc HepG2, CYP3A4 luciferase reporter, 24 h; series mostly up to 92.4 µM
Results filed as inconclusive are left out. Activity calls are given as the source filed them. Calls follow the shape of the dose curve; as a rule, active = well fitted activation curve with a large enough effect in the repeat runs; inconclusive = weak or mixed curves; inactive = no such curve, though single readings can be large or run the other way.

For orientation, consider the following solved cases.
compound	assayed.system	activation
O=C(O)CNCC(=O)O	Nuclear receptor subfamily 1 group I member 2 (Homo sapiens) (UniProt O75469)	-2.51% [at 8.39 µM] (inactive)
Cc1[nH]c(C)c(Cl)c(=O)c1Cl	Nuclear receptor subfamily 1 group I member 2 (Homo sapiens) (UniProt O75469)	-7.31% [at 19 µM] (inactive)
NC(N)=NCCC[C@H](N)C(=O)O	Nuclear receptor subfamily 1 group I member 2 (Homo sapiens) (UniProt O75469)	-5.55% [at 8.39 µM] (inactive)
CC(CSC(=O)c1ccccc1)C(=O)N1C[C@@H](Sc2ccccc2)C[C@H]1C(=O)O (stereo not given in full)	Nuclear receptor subfamily 1 group I member 2 (Homo sapiens) (UniProt O75469)	21.6% [at 19 µM] (inactive)

Would you please give the reported activation of Brc1c2ccccc2c(Br)c2ccccc12 with Nuclear receptor subfamily 1 group I member 2 (Homo sapiens) (UniProt O75469)? 1.22% [at 8.39 µM] (inactive)

* * *

Assay: qHTS RealTime-Glo MT Cell Viability Assay in HEK293 cells - 32 hour (AID 1224868); note: nearly all actives have a fitted effect of over 50% in size
Conditions: RealTime-Glo luminescence; series mostly up to 76.8 µM
Records with an inconclusive call do not appear. The source made the active and inactive calls. The call rests on the fitted dose curve; in most records, active means well fitted cell-killing curve with a large enough effect in the repeat runs; inconclusive means weak or mixed curves, or effect the other way; inactive means flat fitted curve, though single readings scatter.
Outcome (select one): class 1 = active, class 0 = inactive

Here's what some known entries look like.
compound	label.class
CC1OC(=O)C(C)OC1=O (configuration not stated)	class 0
CC(=O)[O][Al]	class 0
C#CCN(C)CCCOc1ccc(Cl)cc1Cl	class 0
CCCCCCCCCCCCCCOS(=O)(=O)O	class 0
CN(Cc1ccc(C(C)(C)C)cc1)Cc1cccc2ccccc12	class 0
CCCCC1=NC2(CCCC2)C(=O)N1Cc1ccc(-c2ccccc2-c2nn[nH]n2)cc1	class 0

Then there is this compound:
Each compound tested received a call. Report the one for O=C(c1ccc(F)cc1)C1CCN(CCn2c(=S)[nH]c3ccccc3c2=O)CC1 . class 1

* * *

Listing of entries alongside the reported activity change, negative = cytotoxic.
Assay: qHTS RealTime-Glo MT Cell Viability Assay in HEK293 cells - 32 hour (AID 1224868); note: nearly all actives have a fitted effect of over 50% in size; for activity change, negative = cytotoxic: top concentration of the series differs between compounds; % is set by controls: 0 for no effect and ±100 for the full control effect
Conditions: RealTime-Glo luminescence; series mostly up to 76.8 µM
From the text: National Center for Advancing Translational Sciences [NCATS] NIH Chemical Genomics Center [NCGC] U.S. Environmental Protection Agency [EPA] National Institutes of Environmental Health Sciences [NIEHS] National Toxicology Program [NTP] U.S. Food and Drug Administration [FDA] Measure of cell viability is critical in the cell-base assay. Analysis of cell viability is necessary for the characterization of cell responses to cytotoxic drugs and environmental stress. […]
Records with an inconclusive call do not appear. The source made the active and inactive calls. Calls follow the shape of the dose curve; as a rule, active = well fitted cell-killing curve with a large enough effect in the repeat runs; inconclusive = weak or mixed curves, or effect the other way; inactive = flat fitted curve, though single readings scatter.

For orientation, consider the following solved cases.
mol	activity change, negative = cytotoxic
O=C(O)CNCC(=O)O	-9.97% [at 6.97 µM] (inactive)
C/C(=C(\CCOP(=O)(O)O)SC(=O)c1ccccc1)N(C=O)Cc1cnc(C)nc1N	2.89% [at 6.97 µM] (inactive)
Cc1[nH]c(C)c(Cl)c(=O)c1Cl	-20.8% [at 15.8 µM] (inactive)
NC(N)=NCCC[C@H](N)C(=O)O	5.15% [at 6.97 µM] (inactive)

For the next question, use this compound.
Provide activity change, negative = cytotoxic value for the following compound: NCC(=O)O 7.53% [at 15.8 µM] (inactive)
